# target: UniProtKB O06543
# Sequence (O06543 whole entry): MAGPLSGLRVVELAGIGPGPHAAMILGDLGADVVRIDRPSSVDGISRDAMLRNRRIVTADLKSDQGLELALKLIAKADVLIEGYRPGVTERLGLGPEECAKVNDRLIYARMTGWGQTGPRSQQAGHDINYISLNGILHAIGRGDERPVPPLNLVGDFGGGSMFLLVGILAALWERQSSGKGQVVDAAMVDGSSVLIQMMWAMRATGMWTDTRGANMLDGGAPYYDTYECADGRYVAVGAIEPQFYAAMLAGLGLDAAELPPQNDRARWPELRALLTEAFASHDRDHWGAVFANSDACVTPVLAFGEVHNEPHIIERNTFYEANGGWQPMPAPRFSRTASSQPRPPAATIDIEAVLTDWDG
# assay-procedure: MCR inhibition, colorimetric assay, dose-response curves
# Assay type: biochemical
# Parameters: made in house
# condition-summary: Log10 IC50, repeat 3; 4-parameter logistic fit coefficient
pIC50: −log10 of the molar value.
The label depends only on pIC50: true (1) if it is at least 6, false (0) if it is smaller.

{"columns": ["compound", "target", "label"],
 "data": [
  ["CC(Sc1cccc(OCc2ccccc2)c1)C(=O)SCCNC(=O)CCNC(=O)C(O)C(C)(C)COP(=O)(O)OP(=O)(O)OCC1OC(n2cnc3c(N)ncnc32)C(O)C1OP(=O)(O)O (racemic) [Compound 2]", "UniProtKB O06543", "true (1)"],
  ["CC(C)COc1ccc(SC(C)C(=O)SCCNC(=O)CCNC(=O)C(O)C(C)(C)COP(=O)(O)OP(=O)(O)OCC2OC(n3cnc4c(N)ncnc43)C(O)C2OP(=O)(O)O)cc1 (racemic) [Compound 13]", "UniProtKB O06543", "false (0)"],
  ["COc1cccc(CCOc2ccc(SC(C)C(=O)SCCNC(=O)CCNC(=O)C(O)C(C)(C)COP(=O)(O)OP(=O)(O)OCC3OC(n4cnc5c(N)ncnc54)C(O)C3OP(=O)(O)O)cc2)c1 (racemic) [Compound 11]", "UniProtKB O06543", "true (1)"],
  ["CC(Sc1ccc(OCc2ccccc2)cc1)C(=O)SCCNC(=O)CCNC(=O)C(O)C(C)(C)COP(=O)(O)OP(=O)(O)OCC1OC(n2cnc3c(N)ncnc32)C(O)C1OP(=O)(O)O (racemic) [Compound 8]", "UniProtKB O06543", "false (0)"],
  ["CC(C)COc1cccc(SC(C)C(=O)SCCNC(=O)CCNC(=O)C(O)C(C)(C)COP(=O)(O)OP(=O)(O)OCC2OC(n3cnc4c(N)ncnc43)C(O)C2OP(=O)(O)O)c1 (racemic) [Compound 7]", "UniProtKB O06543", "false (0)"]
]}
